B1: r4_43_TrROS_Hall (parent)
chain: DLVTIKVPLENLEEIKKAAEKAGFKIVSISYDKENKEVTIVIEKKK

variants of: B1; experiment: folding stability dG (cDNA display proteolysis); higher = more stable; conditions: PBS, room temperature
List of folding stability dG values.
QUANTITY_NAME: folding stability dG (kcal/mol)

    mutant_id  quantitative_result
 0       N35T                  3.4
 1       K25D                 2.73
 2       K17R                 3.43
 3       K25N                 3.34
 4       A18H                 3.77
 5       F24I                 2.52
 6        P8D                 3.39
 7       K46Y                 4.33
 8       K45T                 3.99
 9       T39K                 3.42
10       K21N                 3.42
11       E34N                 3.77
12       K44H                 3.73
13       E10L                 3.59
14       V27C                 3.64
15       A18L                 3.55
16       I40G                0.285
17       K33P                 2.94
18       T39L                 3.36
19       N35A                 3.24
20       A18T                 3.43
21        I5G                 1.98

All figures here come from the MegaScale stability set (Tsuboyama et al. 2023).
